Values compiled from patent US8697098B2.

Tested on: NCl/ADR-RES drug resistant human ovarian cancer cells
experiment.notes: In vitro cytotoxicity, MTT assay
Assay type: cell-based
run.parameters: 120 h, doxorubicin 31.25 nM to 1000 nM, MTT on day 5, read-out: IC50

>  <compound.smiles>
COc1cccc2c1C(=O)c1c(O)c3c(c(O)c1C2=O)C[C@@](O)(C(=O)CO)C[C@@H]3O[C@H]1C[C@H](N)[C@H](O)[C@H](C)O1

>  <tested.target>
NCl/ADR-RES drug resistant human ovarian cancer cells

>  <IC50, nM>
126

$$$$
